# Test system: Radical scavenging activity
# Protocol notes: Antioxidant activity assessed as DPPH radical scavenging activity at 10 uM by TEAC assay
# Assay type: functional
Experimental readout: Trolox equivalent antioxidant capacity (TEAC)
Respond using a number only.

Please review the following examples before continuing.
[in] GET /values?readout=Trolox equivalent antioxidant capacity (TEAC)&system=Radical scavenging activity&item= CC(C)=CCC/C(C)=C/Cc1c(O)cc2c(c1O)C(=O)C[C@@H](c1ccc(O)cc1)O2
[out] 0.4

[in] Please provide the recorded Trolox equivalent antioxidant capacity (TEAC) for C=C(C)C(O)CC/C(C)=C/Cc1c(O)cc2c(c1O)C(=O)[C@H](O)[C@@H](c1ccc(O)c(OC)c1)O2 (some centres undefined) , tested on Radical scavenging activity.
[out] 2

[in] Radical scavenging activity / Trolox equivalent antioxidant capacity (TEAC) / COc1cc([C@@H]2CC(=O)c3c(cc(O)c(C/C=C(\C)CCC=C(C)C)c3O)O2)ccc1O : value?
[out] 0.8

More entries:
[in] Give the reported Trolox equivalent antioxidant capacity (TEAC) for CC(C)=CCC/C(C)=C/Cc1c(O)cc2c(c1O)C(=O)C[C@@H](c1ccc(O)c(O)c1)O2 (system: Radical scavenging activity).
[out] 5.2
